Assay: Clearance in Golden Syrian hamster at 100 mg/kg, po measured upto 24 hrs by LC-MS/MS analysis
Format: ADME, organism-based, Mesocricetus auratus
Conditions: in vivo
Measurement Kind: CL/F (mL/min/kg)
Note: unit mL/min/kg is implicit; provide only the numeric part.

Can you share its CL/F? I mean this compound: "Cc1ccc(/C=C/c2ccc(-c3cc(C(=O)O)c4cc(F)ccc4n3)cc2)cc1"
46.8

###

Tested on: 3T3-L1
Test: Cytotoxicity against mouse 3T3-L1 cells assessed as cell viability at 20 uM incubated for 48 hrs by MTT assay
Assay type: toxicity, cell-based
Settings: 3t3-l1, 48 h
Measurement Kind: Activity

Consider the worked cases shown below.
>>> experimental_value("Cc1cccc(C#Cc2ccc(-c3cc(C(=O)O)c4ccccc4n3)cc2)c1")
"Toxic"
>>> experimental_value("CC(C)(C)c1ccc(C#Cc2ccc(-c3cc(C(=O)O)c4ccccc4n3)cc2)cc1")
"Non-toxic"
>>> experimental_value("COC(=O)c1cc(-c2ccc(/C=C/c3ccc(C)cc3)cc2)nc2ccc(F)cc12")
"Toxic"
>>> experimental_value("CCCCCCCCOC(=O)c1cc(-c2ccc(/C=C/c3ccc(C)cc3)cc2)nc2ccc(F)cc12")
"Toxic"
>>> experimental_value("CCCCCOC(=O)c1cc(-c2ccc(/C=C/c3ccc(C)cc3)cc2)nc2ccc(F)cc12")
"Toxic"

Can you share its Activity? I mean this molecule: "Cc1ccc(/C=C/c2ccc(-c3cc(C(=O)O)c4ccccc4n3)cc2)cc1"
Non-toxic

Please give the result for "O=C(O)c1cc(-c2ccc(C#Cc3ccc(F)cc3)cc2)nc2ccccc12" too.
Toxic

Please give the result for "O=C(O)c1ccc(/C=C/c2ccc(-c3cc(C(=O)O)c4ccccc4n3)cc2)cc1" too.
Toxic

Please give the result for "CCCCCCOC(=O)c1cc(-c2ccc(/C=C/c3ccc(C)cc3)cc2)nc2ccc(F)cc12" too.
Toxic
